The following molecules are listed with their measured TGI values.
- System: OVCAR-4 ovarian
- protocol_description: NCI tumour cell line growth inhibition, 48 h
Answer in µM, number only, no unit symbol.

Below, 2 molecules whose answers are already recorded.
compound_string	unit_label	TGI
O=C1C=CC(=O)c2c(O)c(N3CCN(c4ccccn4)CC3)c(Cl)c(O)c21	µM	3.02
C[n+]1c2ccccc2n2c3ccccc3c(NCCCN3CCOCC3)c(C#N)c21	µM	8.81

For the next question, use this molecule.
Query block: Data request, read-out TGI, for `O=[N+]([O-])c1ccc(C(Br)c2ccc([N+](=O)[O-])cc2)cc1`
Result block: 4.85

====

- Test system: NCI-H226 lung
- protocol_description: NCI tumour cell line growth inhibition, 48 h
property_label: GI50

C[CH2][Sn]([CH2]C)([O]C(=O)c1cccc(OC)c1)[O][Sn]([CH2]C)([CH2]C)[O]C(=O)c1cccc(OC)c1 18400 nM
CC1(C)CCC2(CC1)N[C@@H](C(=O)N[C@@H]1CC[C@@H](C(N)=O)OC1)[C@H](c1ccnc(Cl)c1F)[C@]21C(=O)Nc2cc(Cl)ccc21 93.5 nM
N#C/C(=C\c1cn(Cc2ccccc2)c2ccccc12)C(=O)Nc1ncc(Cc2ccccc2Cl)s1 1700 nM

For the next question, use this compound.
Query block: Data request, read-out GI50, for `CN(C)c1ccc(Nc2ncnc3ccccc23)cc1`
Result block: > 100000 nM

====

The following compounds are listed with their measured log10(TGI) values.
- System: HOP-92 NSCLC
- protocol_description: NCI tumour cell line growth inhibition, 48 h
In plain terms, each number is the log10 of measured TGI in µM.

compound	log10(TGI)
Cc1cc(NS(=O)(=O)c2ccc(Nc3c4ccccc4nc4c(C(=O)Nc5ccc(S(N)(=O)=O)cc5)cccc34)cc2)no1	1.91
CCOC(=O)c1ccc2c(c1)[n+](=O)c(C(=O)C1CCCS1)c(C(F)(F)F)n2[O-] (stereo not given)	0.07
CC1=C(C(=O)OCc2ccncc2)C(C2=C(C)SCCS2)C(C(=O)OCc2ccncc2)=C(C)N1	1.50
COc1ccc(N2C(=O)C3c4[nH]c5ccccc5c4C4CCC(c5ccccc5)CC4C3C2=O)cc1 (stereo not given)	1.79

Query block: Data request, read-out log10(TGI), for `COc1ccc(-c2c(-c3cc(OC)c(OC)c(OC)c3)nc3sc(C4CC4)nn23)cc1OC`
Result block: 0.95

Query block: Data request, read-out log10(TGI), for `O=[N+]([O-])c1ccc2[nH]c3c(-c4ccccc4)nccc3c2c1`
Result block: 1.82

====

- Test system: DU-145 prostate
- protocol_description: NCI tumour cell line growth inhibition, 48 h
property_label: TGI

Below, 4 molecules whose answers are already recorded.
molecule	TGI
COC1CCN(N(C)C)O1 (stereo not given)	> 100 µM
CC1(F)C=CC(=O)C=C1	> 100 µM
Cc1cc(-n2c(/C=C/c3ccc(Cl)cc3)nc3cc(Cl)ccc3c2=O)on1	> 50 µM
CC1=C(C(=O)OCc2ccncc2)C(C2=C(C)SCCS2)C(C(=O)OCc2ccncc2)=C(C)N1	> 100 µM

Query block: Data request, read-out TGI, for `Cc1ccc(/C(=N/NS(=O)(=O)c2ccc([N+](=O)[O-])cc2)Sc2cc(Cl)c(C)cc2S(N)(=O)=O)cc1`
Result block: > 100 µM

Query block: Data request, read-out TGI, for `Oc1ccc(-c2nc3ccc4ccccc4c3c3c2CCCC3)c(O)c1`
Result block: > 100 µM

Query block: Data request, read-out TGI, for COC(=O)[C@](NC(=O)OCc1ccccc1)([C@@H](C)S(=O)c1ccc(C)cc1)C(F)(F)F (stereo not given in full)
Result block: > 100 µM
